Experiment: Caco-2 membrane permeability, improved method as used in the following Examples (96-well, 20 to 24 h preincubation)
Type: in vitro ADME
Settings: human, Caco-2, Caco-2
Starred links: 1 amine or outer side, 2 acyl side, 3 side chain; linkers in the order of their positions; H or OH if unused. Positions of bridges follow the written chain, without caps; N, C: chain ends. Non-standard residues stand in square brackets, D forms with d. Residues, ends and D or L forms follow the SMILES beside them. *: point of attachment. NMeF = CN[C@@H](Cc1ccccc1)C(=O)O; NMeGABA = CN(CCCC(=O)[*:2])[*:1]; NMeL = CN[C@@H](CC(C)C)C(=O)O; Propyl(2R-OH) = C[C@@H](O)C*; Piperidide = C1CCN(*)CC1; tBu = CC(C)(C)*
Metric: Papp A→B at 180 min (×10⁻⁶ cm/s)
Give just the number in ×10⁻⁶ cm/s; leave the unit off.

In: Papp A→B at 180 min for CC(C)C[C@H]1C(=O)N[C@@H](C(C)C)C(=O)N(C)[C@@H](Cc2ccccc2)C(=O)N(C)[C@@H](Cc2ccccc2)C(=O)N[C@@H](COC(C)(C)C)C(=O)N(C)[C@@H](CC(C)C)C(=O)N[C@@H](COC[C@@H](C)O)C(=O)N(C)[C@@H](CC(C)C)C(=O)N(C)[C@@H](CC(C)C)C(=O)N[C@H](C(=O)N2CCCCC2)CC(=O)N(C)CCCC(=O)N1C [pd493] ([NMeGABA][NMeL]V[NMeF][NMeF]S(tBu)[NMeL]S(Propyl(2R-OH))[NMeL][NMeL]D-Piperidide; lactam N-11) ?
Out: 1.3

----------
Assay: Caco-2 membrane permeability, improved method as used in the following Examples (96-well, 20 to 24 h preincubation)
Format: in vitro ADME
Conditions: human, Caco-2, Caco-2
Starred links: 1 amine or outer side, 2 acyl side, 3 side chain; linkers in the order of their positions; H or OH if unused. Positions of bridges follow the written chain, without caps; N, C: chain ends. Non-standard residues stand in square brackets, D forms with d. Residues, ends and D or L forms follow the SMILES beside them. *: point of attachment. X9 = O=C(CN(CCOc1ccccc1)[*:1])[*:2]; Hyp = O=C(O)[C@@H]1C[C@@H](O)CN1; NMeF = CN[C@@H](Cc1ccccc1)C(=O)O; NMeL = CN[C@@H](CC(C)C)C(=O)O; NMeAbu = CC[C@H](NC)C(=O)O; NMeA = CN[C@@H](C)C(=O)O; Piperidide = C1CCN(*)CC1; NBuGly = CCCCNCC(=O)O; tBu = CC(C)(C)*
List of Papp A→B at 180 min values.
Give just the number in ×10⁻⁶ cm/s; leave the unit off.

In: Papp A→B at 180 min for CCO[C@@H]1C[C@H]2C(=O)N(C)[C@@H](CC(C)C)C(=O)N[C@@H]([C@@H](C)O)C(=O)N(C)[C@@H](Cc3ccccc3)C(=O)N[C@@H](Cc3ccccc3)C(=O)N(C)[C@@H](CC(C)C)C(=O)N[C@H](C(=O)N3CCCCC3)CC(=O)N[C@H](CC(C)C)C(=O)N3CCC[C@H]3C(=O)N[C@@H](COC(C)(C)C)C(=O)N(C)[C@@H](CC(C)C)C(=O)N2C1 [pd372] ([dL]PS(tBu)[NMeL][Hyp](Et)[NMeL]T[NMeF]F[NMeL]D-Piperidide; lactam N-11) ?
Out: 1.4

New cases:
In: Papp A→B at 180 min for CCCCN1CC(=O)N(C)[C@@H](C)C(=O)N[C@@H](COC(C)(C)C)C(=O)N(C)[C@@H](CC(C)C)C(=O)N(CCOc2ccccc2)CC(=O)N[C@H](C(=O)N2CCCCC2)CC(=O)N[C@H](CC(C)C)C(=O)N(C)[C@@H](Cc2ccccc2)C(=O)N[C@@H](CC(C)C)C(=O)N(C)[C@@H](CC)C(=O)N[C@@H]([C@@H](C)O)C1=O [pd422] ([dL][NMeF]L[NMeAbu]T[NBuGly][NMeA]S(tBu)[NMeL][X9]D-Piperidide; lactam N-11) ?
Out: 1

----------
Test: Caco-2 membrane permeability, improved method as used in the following Examples (96-well, 20 to 24 h preincubation)
Format: in vitro ADME
Conditions: human, Caco-2, Caco-2
Starred links: 1 amine or outer side, 2 acyl side, 3 side chain; linkers in the order of their positions; H or OH if unused. Positions of bridges follow the written chain, without caps; N, C: chain ends. Non-standard residues stand in square brackets, D forms with d. Residues, ends and D or L forms follow the SMILES beside them. *: point of attachment. Ethyl(2-morpholino) = C1CN(CC*)CCO1; NMeF = CN[C@@H](Cc1ccccc1)C(=O)O; NMeGABA = CN(CCCC(=O)[*:2])[*:1]; NMeL = CN[C@@H](CC(C)C)C(=O)O; NMeAbu = CC[C@H](NC)C(=O)O; Piperidide = C1CCN(*)CC1; tBu = CC(C)(C)*
Metric: Papp A→B at 180 min (nm/s)
Give just the number in nm/s; leave the unit off.

In: Papp A→B at 180 min for CC[C@H](C)[C@@H]1NC(=O)[C@H](CC(C)C)N(C)C(=O)CCCN(C)C(=O)C[C@@H](C(=O)N2CCCCC2)NC(=O)[C@H](CC(C)C)N(C)C(=O)[C@H](CC(C)C)N(C)C(=O)[C@H](COCCN2CCOCC2)NC(=O)[C@H](CC(C)C)N(C)C(=O)[C@H](COC(C)(C)C)NC(=O)[C@H](CC)N(C)C(=O)[C@H](Cc2ccccc2)N(C)C1=O [pd485] ([NMeGABA][NMeL]I[NMeF][NMeAbu]S(tBu)[NMeL]S(Ethyl(2-morpholino))[NMeL][NMeL]D-Piperidide; lactam N-11) ?
Out: 12

----------
List of Papp A→B at 180 min values.
Test: Caco-2 membrane permeability, improved method as used in the following Examples (96-well, 20 to 24 h preincubation)
Type: in vitro ADME
Details: human, Caco-2, Caco-2
Starred links: 1 amine or outer side, 2 acyl side, 3 side chain; linkers in the order of their positions; H or OH if unused. Positions of bridges follow the written chain, without caps; N, C: chain ends. Non-standard residues stand in square brackets, D forms with d. Residues, ends and D or L forms follow the SMILES beside them. *: point of attachment. 3Pal(6-NMe2) = CN(C)c1ccc(C[C@H](N)C(=O)O)cn1; hNle(7,7-F2) = N[C@@H](CCCCC(F)F)C(=O)O; Hyp = O=C(O)[C@@H]1C[C@@H](O)CN1; NMeF = CN[C@@H](Cc1ccccc1)C(=O)O; NMeGABA = CN(CCCC(=O)[*:2])[*:1]; NMeI = CC[C@H](C)[C@H](NC)C(=O)O; NMeL = CN[C@@H](CC(C)C)C(=O)O; NMeA = CN[C@@H](C)C(=O)O; Piperidide = C1CCN(*)CC1; dNMeA = CN[C@H](C)C(=O)O; Me2NCH2CH2 = CN(C)CC*; NBuGly = CCCCNCC(=O)O; Isopentyl = CC(C)CC*; Sar = CNCC(=O)O
Give just the number in ×10⁻⁶ cm/s; leave the unit off.

Answered examples (2):
In: Papp A→B at 180 min for CCO[C@@H]1C[C@H]2C(=O)N(C)[C@@H](CC(C)C)C(=O)N[C@@H]([C@@H](C)CC)C(=O)N(C)[C@@H](CC(C)C)C(=O)N[C@@H](CC(C)C)C(=O)N[C@H](C(=O)N3CCCCC3)CC(=O)N(C)[C@H](C)C(=O)N(C)[C@@H](CC(C)C)C(=O)N[C@@H](CC(C)C)C(=O)N(C)[C@@H](CC(C)C)C(=O)N[C@@H]([C@@H](C)O)C(=O)N2C1 [pd371] ([dNMeA][NMeL]L[NMeL]T[Hyp](Et)[NMeL]I[NMeL]LD-Piperidide; lactam N-11) ?
Out: 3.4

In: Can you handle CCCCN1CC(=O)N(C)[C@@H](CC(C)C)C(=O)N[C@@H](Cc2ccc(N(C)C)nc2)C(=O)N(C)[C@@H](CC(C)C)C(=O)N[C@@H]([C@@H](C)O)C(=O)N(C)CC(=O)N(C)[C@@H](Cc2ccccc2)C(=O)N(C)[C@@H](CC(C)C)C(=O)N[C@@H](COCCC(C)C)C(=O)N(C)[C@@H](C)C(=O)N[C@H](C(=O)N2CCCCC2)CC1=O [pd402] ([NBuGly][NMeL][3Pal(6-NMe2)][NMeL]T[Sar][NMeF][NMeL]S(Isopentyl)[NMeA]D-Piperidide; lactam N-11) next?
Out: 1

New cases:
In: Papp A→B at 180 min for CC[C@H](C)[C@H]1C(=O)N[C@@H]([C@@H](C)O)C(=O)N(C)CC(=O)N(C)[C@@H](CC(C)C)C(=O)N[C@H](C(=O)N2CCCCC2)CC(=O)N(C)[C@@H](C)C(=O)N[C@@H](CC(C)C)C(=O)N(C)[C@@H](CC(C)C)C(=O)N(C)[C@@H](Cc2ccccc2)C(=O)N[C@@H](CCCCC(F)F)C(=O)N(C)[C@@H](Cc2ccccc2)C(=O)N1C [pd335] ([NMeA]L[NMeL][NMeF][hNle(7,7-F2)][NMeF][NMeI]T[Sar][NMeL]D-Piperidide; lactam N-11) ?
Out: 2

In: Can you handle CC(C)C[C@@H]1NC(=O)[C@H](CC(C)C)N(C)C(=O)CCCN(C)C(=O)C[C@@H](C(=O)N2CCCCC2)NC(=O)[C@H](CC(C)C)N(C)C(=O)[C@H](CC(C)C)N(C)C(=O)[C@H]([C@@H](C)O)NC(=O)[C@H](CC(C)C)N(C)C(=O)[C@H](COCCN(C)C)NC(=O)[C@H](Cc2ccccc2)N(C)C(=O)[C@H](Cc2ccccc2)N(C)C1=O [pd54] ([NMeGABA][NMeL]L[NMeF][NMeF]S(Me2NCH2CH2)[NMeL]T[NMeL][NMeL]D-Piperidide; lactam N-11) next?
Out: 0.073
